Attribute: GI50
# Protocol: Growth inhibition of human OVCAR3 cells after 48 hrs by sulforhodamine B assay
# Assay type: functional
# Condition Context: OVCAR-3, 48 h
Measure: GI50 (µM)

Compound	Censoring Sign	Value
CC1=CC[C@H](C(C)(C)NC(=S)N/N=C/c2ccc(F)cc2)CC1	>	100
CC1=CC[C@H](C(C)(C)NC(=S)N/N=C/c2ccc(N(C)C)cc2)CC1	>	100
CC1=CC[C@H](C(C)(C)NC(=S)N/N=C(\C)c2ccccc2)CC1	>	100
CC1=CC[C@H](C(C)(C)NC(=S)N/N=C/c2ccc(Cl)cc2)CC1	=	8.6
CC(=O)O[C@H]1C(=O)[C@@]2(C)[C@H]([C@H](OC(=O)c3ccccc3)[C@]3(O)C[C@H](OC(=O)[C@H](O)[C@@H](NC(=O)c4ccccc4)c4ccccc4)C(C)=C1C3(C)C)[C@]1(OC(C)=O)CO[C@@H]1C[C@@H]2O	=	0.2
CC1=CC[C@H](C(C)(C)N=C=S)CC1	>	100
CC1=CC[C@H](C(C)(C)NC(=S)N/N=C/c2cccc(Cl)c2)CC1	=	13.6
CC1=CC[C@H](C(C)(C)NC(=S)N/N=C/c2cccc([N+](=O)[O-])c2)CC1	>	100
CC1=CC[C@H](C(C)(C)NC(=S)N/N=C/c2ccccc2[N+](=O)[O-])CC1	=	8.5
CC1=CC[C@H](C(C)(C)NC(=S)N/N=C/c2ccc(O)cc2)CC1	>	100
CC1=CC[C@H](C(C)(C)NC(=S)N/N=C/c2ccccc2Cl)CC1	=	15.1
C=C(C)[C@H]1CC=C(C)CC1	>	100
COc1cc(/C=N/NC(=S)NC(C)(C)[C@H]2CC=C(C)CC2)ccc1O	=	53.5
CC1=CC[C@H](C(C)(C)NC(=S)N/N=C/c2ccc[nH]2)CC1	=	33.5
